B1: PTPN9 (parent)
chain: NKWTVQYNVSPLSWNVAVKFLMAR

Variants of: B1
Test: protein stability index of a GFP-peptide fusion (GPS, HEK-293T) (PSI 1-6); higher = more stable;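 also: lentivirally expressed fusions sorted by FACS into six bins by GFP to DsRed ratio, PSI derived from sequencing read proportions per bin multiplied by bin number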
Conditions: c terminus: a fixed tail appended
Each record here notes measured protein stability index.
REPORTED ENDPOINT: protein stability index

>  <RESIDUE CODES>
NKWTVQYNVSPLSWNVAVKFLMAT [R24T]

>  <REPORTED ENDPOINT>
protein stability index

>  <MEASURED RESULT>
2.27

$$$$
>  <RESIDUE CODES>
NKWTVQYNVSPLSWNVAVKFPMAR [L21P]

>  <REPORTED ENDPOINT>
protein stability index

>  <MEASURED RESULT>
1.26

$$$$
>  <RESIDUE CODES>
NKWTVQYNCSPLSWNVAVKFLMAR [V9C]

>  <REPORTED ENDPOINT>
protein stability index

>  <MEASURED RESULT>
3.09

$$$$
>  <RESIDUE CODES>
NKWTVQYNVSPLVWNVAVKFLMAR [S13V]

>  <REPORTED ENDPOINT>
protein stability index

>  <MEASURED RESULT>
2.88

$$$$
>  <RESIDUE CODES>
NKWTVQYNVSPLSWKVAVKFLMAR [N15K]

>  <REPORTED ENDPOINT>
protein stability index

>  <MEASURED RESULT>
4.23

$$$$
>  <RESIDUE CODES>
NKWTPQYNVSPLSWNVAVKFLMAR [V5P]

>  <REPORTED ENDPOINT>
protein stability index

>  <MEASURED RESULT>
1.94

$$$$
>  <RESIDUE CODES>
NKWTVQYNKSPLSWNVAVKFLMAR [V9K]

>  <REPORTED ENDPOINT>
protein stability index

>  <MEASURED RESULT>
2.56

$$$$
>  <RESIDUE CODES>
NKWTVQYNVSPHSWNVAVKFLMAR [L12H]

>  <REPORTED ENDPOINT>
protein stability index

>  <MEASURED RESULT>
2.66

$$$$
>  <RESIDUE CODES>
NKWTVQYNVSPLSWNVAVKQLMAR [F20Q]

>  <REPORTED ENDPOINT>
protein stability index

>  <MEASURED RESULT>
2.38

$$$$
>  <RESIDUE CODES>
NKWTVQYNVSPLSWLVAVKFLMAR [N15L]

>  <REPORTED ENDPOINT>
protein stability index

>  <MEASURED RESULT>
1.92

$$$$
>  <RESIDUE CODES>
NKWTVQYNVSPLSWNVAVYFLMAR [K19Y]

>  <REPORTED ENDPOINT>
protein stability index

>  <MEASURED RESULT>
3.14

$$$$
>  <RESIDUE CODES>
NKWTNQYNVSPLSWNVAVKFLMAR [V5N]

>  <REPORTED ENDPOINT>
protein stability index

>  <MEASURED RESULT>
1.95

$$$$
>  <RESIDUE CODES>
NKWTVGYNVSPLSWNVAVKFLMAR [Q6G]

>  <REPORTED ENDPOINT>
protein stability index

>  <MEASURED RESULT>
1.7

$$$$
>  <RESIDUE CODES>
NKWTVQYNVNPLSWNVAVKFLMAR [S10N]

>  <REPORTED ENDPOINT>
protein stability index

>  <MEASURED RESULT>
2.35

$$$$
>  <RESIDUE CODES>
NKWTVQYNVSPLSWNVAVKFIMAR [L21I]

>  <REPORTED ENDPOINT>
protein stability index

>  <MEASURED RESULT>
3.32

$$$$
>  <RESIDUE CODES>
NKWTVQYNVFPLSWNVAVKFLMAR [S10F]

>  <REPORTED ENDPOINT>
protein stability index

>  <MEASURED RESULT>
2.12

$$$$
>  <RESIDUE CODES>
NKWTVQYNVSPLSWNVIVKFLMAR [A17I]

>  <REPORTED ENDPOINT>
protein stability index

>  <MEASURED RESULT>
3.65

$$$$
>  <RESIDUE CODES>
NKWTVQYNVSPLSWNVAVKFLNAR [M22N]

>  <REPORTED ENDPOINT>
protein stability index

>  <MEASURED RESULT>
2.06

$$$$
>  <RESIDUE CODES>
NKWTVQYNVSPLSWNVAVKFLMAN [R24N]

>  <REPORTED ENDPOINT>
protein stability index

>  <MEASURED RESULT>
3.31

$$$$
>  <RESIDUE CODES>
NKWTVQYNVSPLMWNVAVKFLMAR [S13M]

>  <REPORTED ENDPOINT>
protein stability index

>  <MEASURED RESULT>
3.55

$$$$
>  <RESIDUE CODES>
HKWTVQYNVSPLSWNVAVKFLMAR [N1H]

>  <REPORTED ENDPOINT>
protein stability index

>  <MEASURED RESULT>
2.3

$$$$
>  <RESIDUE CODES>
NKWTVQYNVSPLSKNVAVKFLMAR [W14K]

>  <REPORTED ENDPOINT>
protein stability index

>  <MEASURED RESULT>
2.24

$$$$
>  <RESIDUE CODES>
NKWTVQYNVSPLSWNVAVKFRMAR [L21R]

>  <REPORTED ENDPOINT>
protein stability index

>  <MEASURED RESULT>
3.22

$$$$
>  <RESIDUE CODES>
NKWTVQYNVSPLSWNVAPKFLMAR [V18P]

>  <REPORTED ENDPOINT>
protein stability index

>  <MEASURED RESULT>
1.28

$$$$
>  <RESIDUE CODES>
NKWTVQYNVSPLSWNVAVKFLMNR [A23N]

>  <REPORTED ENDPOINT>
protein stability index

>  <MEASURED RESULT>
2.54

$$$$
>  <RESIDUE CODES>
NKWTVQYNVSPLIWNVAVKFLMAR [S13I]

>  <REPORTED ENDPOINT>
protein stability index

>  <MEASURED RESULT>
1.99

$$$$
>  <RESIDUE CODES>
NKWTVQYNVSPLSWNVAVKFLMVR [A23V]

>  <REPORTED ENDPOINT>
protein stability index

>  <MEASURED RESULT>
2.43

$$$$
>  <RESIDUE CODES>
NKWTVQYNVSPLSWNVAVKFLRAR [M22R]

>  <REPORTED ENDPOINT>
protein stability index

>  <MEASURED RESULT>
1.88

$$$$
>  <RESIDUE CODES>
NKWTVQYNVSPLSWNVAVKKLMAR [F20K]

>  <REPORTED ENDPOINT>
protein stability index

>  <MEASURED RESULT>
1.4

$$$$
>  <RESIDUE CODES>
NKWTVQYNVHPLSWNVAVKFLMAR [S10H]

>  <REPORTED ENDPOINT>
protein stability index

>  <MEASURED RESULT>
2.23

$$$$
>  <RESIDUE CODES>
NKWTVQYDVSPLSWNVAVKFLMAR [N8D]

>  <REPORTED ENDPOINT>
protein stability index

>  <MEASURED RESULT>
2.07

$$$$
>  <RESIDUE CODES>
NKWTVQYNVSPLCWNVAVKFLMAR [S13C]

>  <REPORTED ENDPOINT>
protein stability index

>  <MEASURED RESULT>
3.09

$$$$
>  <RESIDUE CODES>
NKWQVQYNVSPLSWNVAVKFLMAR [T4Q]

>  <REPORTED ENDPOINT>
protein stability index

>  <MEASURED RESULT>
2.27

$$$$
>  <RESIDUE CODES>
NKWTQQYNVSPLSWNVAVKFLMAR [V5Q]

>  <REPORTED ENDPOINT>
protein stability index

>  <MEASURED RESULT>
1.92

$$$$
>  <RESIDUE CODES>
NKWTVQYNVYPLSWNVAVKFLMAR [S10Y]

>  <REPORTED ENDPOINT>
protein stability index

>  <MEASURED RESULT>
1.82

$$$$
>  <RESIDUE CODES>
NKWTVQYNVSPLSWNVAIKFLMAR [V18I]

>  <REPORTED ENDPOINT>
protein stability index

>  <MEASURED RESULT>
2.62

$$$$
>  <RESIDUE CODES>
NKWTVQYNVSPLPWNVAVKFLMAR [S13P]

>  <REPORTED ENDPOINT>
protein stability index

>  <MEASURED RESULT>
2.31

$$$$
>  <RESIDUE CODES>
NKWTVQYNVSPLSWNVFVKFLMAR [A17F]

>  <REPORTED ENDPOINT>
protein stability index

>  <MEASURED RESULT>
1.58

$$$$
>  <RESIDUE CODES>
NKWTVQYNVSPLSWNVAVLFLMAR [K19L]

>  <REPORTED ENDPOINT>
protein stability index

>  <MEASURED RESULT>
3.29

$$$$
>  <RESIDUE CODES>
NNWTVQYNVSPLSWNVAVKFLMAR [K2N]

>  <REPORTED ENDPOINT>
protein stability index

>  <MEASURED RESULT>
1.83

$$$$
>  <RESIDUE CODES>
NKWTVQYNVSPLSWNVANKFLMAR [V18N]

>  <REPORTED ENDPOINT>
protein stability index

>  <MEASURED RESULT>
2.21

$$$$
>  <RESIDUE CODES>
NKWTVQYNVSPLSWNVAVKFLMAK [R24K]

>  <REPORTED ENDPOINT>
protein stability index

>  <MEASURED RESULT>
2.18

$$$$
>  <RESIDUE CODES>
NKWTVQYNVSPLSWPVAVKFLMAR [N15P]

>  <REPORTED ENDPOINT>
protein stability index

>  <MEASURED RESULT>
2.39

$$$$
>  <RESIDUE CODES>
NKWTYQYNVSPLSWNVAVKFLMAR [V5Y]

>  <REPORTED ENDPOINT>
protein stability index

>  <MEASURED RESULT>
1.67

$$$$
>  <RESIDUE CODES>
NKWTVQYNVSHLSWNVAVKFLMAR [P11H]

>  <REPORTED ENDPOINT>
protein stability index

>  <MEASURED RESULT>
3.88

$$$$
>  <RESIDUE CODES>
NKWTVQYNVSPLSWNVAVKFLMSR [A23S]

>  <REPORTED ENDPOINT>
protein stability index

>  <MEASURED RESULT>
2.48

$$$$
